# Assay notes: Larvicidal activity against Aedes aegypti assessed as mortality at 45 ug/ml measured after 24 hrs relative to control
# Type: ADME
# Run conditions: at 45 µg/mL
Property measured: mortality (%)
Entry rule: numbers only, all in %.

{"Compound": "CCOC(=O)/C=C/c1ccc([N+](=O)[O-])cc1", "Unit of measurement": "%", "mortality": 98.3}
{"Compound": "O=C(O)/C=C/c1ccc(Br)cc1", "Unit of measurement": "%", "mortality": 36.7}
{"Compound": "CCOC(=O)/C=C/c1ccc(O)cc1 [ETHYL P-COUMARATE]", "Unit of measurement": "%", "mortality": 0}
{"Compound": "O=C(O)/C=C/c1ccc(Cl)cc1", "Unit of measurement": "%", "mortality": 95}
{"Compound": "CCOC(=O)/C=C/c1ccc(OC)cc1 [4-METHOXY ETHYL CINNAMATE]", "Unit of measurement": "%", "mortality": 80}
{"Compound": "COc1ccc(/C=C/C(=O)O)cc1", "Unit of measurement": "%", "mortality": 0}

Proceed to the following item.
Record O=C(O)/C=C/c1ccc([N+](=O)[O-])cc1 , field mortality: 86.7

###

# Assay notes: Larvicidal activity against Aedes aegypti 4th instar larvae measured after 48 hrs
# Assay type: ADME
The entries below are paired with their reported LC50.
Entry rule: numbers only, all in µg/mL.

{"Compound": "COP(=S)(OC)Oc1ccc(Sc2ccc(OP(=S)(OC)OC)cc2)cc1 [TEMEFOS]", "Property measured": "LC50", "Unit of measurement": "µg/mL", "Measured value": 4.4}
{"Compound": "CCOC(=O)/C=C/c1ccc(F)cc1", "Property measured": "LC50", "Unit of measurement": "µg/mL", "Measured value": 32.2}
{"Compound": "CCOC(=O)/C=C/c1ccc(C(F)(F)F)cc1", "Property measured": "LC50", "Unit of measurement": "µg/mL", "Measured value": 21.6}
{"Compound": "CCOC(=O)/C=C/c1ccc(Br)cc1", "Property measured": "LC50", "Unit of measurement": "µg/mL", "Measured value": 25.1}

Proceed to the following item.
Record O=C(O)/C=C/c1ccc(Cl)cc1 , field LC50: 26

###

The entries below are paired with their reported mortality.
# Assay notes: Larvicidal activity against Aedes aegypti assessed as mortality at 100 ug/ml measured after 24 hrs relative to control
# Type: ADME
# Run conditions: at 100 µg/mL
The answer should read as a number with its unit following.

See these solved cases before continuing.
{"Substance smiles": "O=C(O)/C=C/c1ccc(Br)cc1", "mortality": "93.3%"}
{"Substance smiles": "O=C(O)/C=C/c1ccccc1", "mortality": "28.3%"}
{"Substance smiles": "O=C(O)/C=C/c1ccc(F)cc1", "mortality": "0%"}

Record O=C(O)/C=C/c1ccc(OC(F)(F)F)cc1 , field mortality: 40%
